Recorded % of CAG foci positive nuclei (DNA-PKi) for the following substances
- Test system: CAG foci in primary DM1 patient myoblasts
- Assay Remarks: Single-cut screening: CAG foci staining
- Format: cell-based, human
- Reported Conditions: single sgRNA, DNA-PKi treated

Substance	% of CAG foci positive nuclei (DNA-PKi), %
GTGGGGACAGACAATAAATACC (listed as DNA, chemistry not fully specified) [SluD83]	1.51
CCCCGTTGGAAGACTGAGTGCC (guide RNA; chemistry not fully specified) [SluU09]	1.22
GCCCCCTAGCggccggggaggg (guide RNA; as printed in the source, key not given here) [SluU42]	1.62
TGCGCTGCTCTCGGAGCCCCAG (guide RNA; chemistry not fully specified) [SluD54]	2.85
GATCACAGACCATTTCTTTCTT (guide RNA; chemistry not fully specified) [SluD01]	1.34
TAGCggccggggagggaggggc (guide RNA; as printed in the source, key not given here) [SluU49]	1.44
ATTTCTTTCTTTCGGCCAGGCT (guide RNA; chemistry not fully specified) [SluD03]	2.14
CAGCGCAAGTGAGGAGGGGGGC (guide RNA; chemistry not fully specified) [SluD46]	1.16
GATGGAGGGCCTTTTATTCGCG (guide RNA; chemistry not fully specified) [SluD98]	1.47
TCAGCCTGGCCGAAAGAAAGAA (guide RNA; chemistry not fully specified) [SluD04]	1.94
cggcccctccctccccggccGC (guide RNA; as printed in the source, key not given here) [SluU51]	1.6
GATAGGTGGGGGTGCGTGGAGG (guide RNA; chemistry not fully specified) [SluD21]	1.77
GGGTCGGGGGTGGGGGTCCTAG (guide RNA; chemistry not fully specified) [SluD87]	2.19
CCTGACGTGGATGGGCAAACTG (guide RNA; chemistry not fully specified) [SluD09]	1.48
gcccctccctccccggccGCTA (guide RNA; as printed in the source, key not given here) [SluU48]	1.56
